# Experiment description: qHTS profiling for inhibitors of Plasmodium falciparum (DD2) proliferation (AID 743323)
# Experimental context: lower = more inhibition; at 28.7 µM (top of the series)
# Description: Plasmodium falciparum is a virulent malarial parasite that kills 1-2 million people worldwide each year. […] Because mature erythrocytes lack DNA, only Plasmodium-derived DNA is detected. The SYBR Green viability assay was adapted from a method described previously (Plouffe et al., 2008). […] The following morning, fluorescence intensity at 485(14) nm excitation and 535(25) nm emission wavelengths was measured on an EnVision (Perkin Elmer) plate reader. […]
Property name: activity, percent of control (%)
Answers are plain numbers, in %.

Example compounds with recorded activity, percent of control:
c1ccc2c(Oc3nc(Nc4ccc(N5CCOCC5)cc4)c4ncn(C5CCCCC5)c4n3)cccc2c1 1.45
N#Cc1ccc(COC[C@H]2O[C@@H](n3c(NCc4ccc(Cl)c(Cl)c4)nc4c(N)ncnc43)[C@@H](O)[C@@H]2O)cc1 23.4
COc1cccc2c1C(=O)c1c(O)c3c(c(O)c1C2=O)C[C@@](O)(C(=O)CO)C[C@H]3O[C@H]1C[C@H](N)[C@H](O)[C@H](C)O1 -1.95

API: the following record is the query input.
Q) So what's the measured activity, percent of control for this one? `NC(=O)c1ncn([C@@H]2O[C@H](CO)[C@@H](O)[C@@H]2O)c1N`
A) 92.4
